# experimental_system: HLA-A*31:01
# protocol_description: IEDB peptide-MHC binding, purified MHC/competitive/fluorescence; filed as Kd, often an IC50 or EC50 that approximates it; bounds were set here for any values at or beyond the usual limits of such assays
# applied_conditions: source organism: Influenza A virus (A/Waikato/7/2000(H3N2))

| sequence_content | Kd |
| --- | --- |
| TVHDRTPYR | ≥ 20 µM |

---

# experimental_system: HLA-A*69:01
# protocol_description: IEDB peptide-MHC binding, purified MHC/direct/fluorescence; filed as Kd, often an IC50 or EC50 that approximates it; bounds were set here for any values at or beyond the usual limits of such assays
# applied_conditions: source organism: Corynebacterium efficiens

| sequence_content | Kd |
| --- | --- |
| VQLQEYDTY | ≥ 20 µM |

---

# experimental_system: HLA-B*51:01
# protocol_description: IEDB peptide-MHC binding, purified MHC/competitive/fluorescence; filed as Kd, often an IC50 or EC50 that approximates it; bounds were set here for any values at or beyond the usual limits of such assays
# applied_conditions: source organism: Orthohantavirus negraense
measured_property: Kd

| sequence_content | measured_property | endpoint_value |
| --- | --- | --- |
| RRFTQAIYD | Kd | ≥ 20 µM |

---

# experimental_system: HLA-B*18:01
# protocol_description: IEDB peptide-MHC binding, purified MHC/competitive/radioactivity; filed as Kd, often an IC50 or EC50 that approximates it; bounds were set here for any values at or beyond the usual limits of such assays
# applied_conditions: source organism: SARS coronavirus Tor2
Kd values, listed per item
measured_property: Kd

| sequence_content | experimental_system | measured_property | endpoint_value |
| --- | --- | --- | --- |
| VESSSKLWA | HLA-B*18:01 | Kd | 1.25 µM |
| QEAYYRARA | HLA-B*18:01 | Kd | ≥ 50.8 µM |
| QESLTTTSTA | HLA-B*18:01 | Kd | ≥ 70.5 µM |
| GDRWFLNRFT | HLA-B*18:01 | Kd | ≥ 70.5 µM |
| QEIQLLAAVG | HLA-B*18:01 | Kd | 6.88 µM |
| RERVNINIV | HLA-B*18:01 | Kd | ≥ 37.8 µM |
| ADYSVLYNST | HLA-B*18:01 | Kd | ≥ 70.5 µM |
| NECAQVLSEM | HLA-B*18:01 | Kd | 0.177 µM |
| KETSYTTTI | HLA-B*18:01 | Kd | ≥ 77.5 µM |
| LEQWNLVIGF | HLA-B*18:01 | Kd | 0.155 µM |

---

# experimental_system: HLA-A*02:01
# protocol_description: IEDB peptide-MHC binding, purified MHC/direct/fluorescence; filed as Kd, often an IC50 or EC50 that approximates it; bounds were set here for any values at or beyond the usual limits of such assays
# applied_conditions: source organism: Campylobacter jejuni RM1221
pKd: −log10 of the molar value.

| sequence_content | pKd |
| --- | --- |
| KNDAVYIGY | ≤ 4.70 |

---

# experimental_system: HLA-A*02:03
# protocol_description: IEDB peptide-MHC binding, purified MHC/competitive/radioactivity; filed as Kd, often an IC50 or EC50 that approximates it; bounds were set here for any values at or beyond the usual limits of such assays
# applied_conditions: source organism: Trypanosoma cruzi
Kd overview

| sequence_content | Kd [nM] |
| --- | --- |
| HVGRPTTVV | 452 |
| FANNKFTLV | 1.36 |
| FVDYNFSLV | 4.24 |
| GITRPTTLV | 1150 |

---

# experimental_system: HLA-B*57:01
# protocol_description: IEDB peptide-MHC binding, purified MHC/competitive/fluorescence; filed as Kd, often an IC50 or EC50 that approximates it; bounds were set here for any values at or beyond the usual limits of such assays
# applied_conditions: source organism: Francisella tularensis subsp. tularensis FSC198
measured_property: Kd (nM)

| sequence_content | experimental_system | endpoint_value |
| --- | --- | --- |
| RSFPEWDYI | HLA-B*57:01 | 97.9 |

---

# experimental_system: HLA-B*57:01
# protocol_description: IEDB peptide-MHC binding, purified MHC/competitive/fluorescence; filed as Kd, often an IC50 or EC50 that approximates it; bounds were set here for any values at or beyond the usual limits of such assays
# applied_conditions: source organism: Orthohantavirus puumalaense
pKd: −log10 of the molar value.
measured_property: pKd

| sequence_content | endpoint_value |
| --- | --- |
| LRYGNVLDV | ≤ 4.70 |

---

# experimental_system: HLA-B*15:01
# protocol_description: IEDB peptide-MHC binding, purified MHC/competitive/fluorescence; filed as Kd, often an IC50 or EC50 that approximates it; bounds were set here for any values at or beyond the usual limits of such assays
# applied_conditions: source organism: Staphylococcus aureus subsp. aureus N315

| sequence_content | Kd |
| --- | --- |
| VILNYIPVL | ≥ 20 µM |

---

# experimental_system: HLA-B*57:01
# protocol_description: IEDB peptide-MHC binding, purified MHC/direct/fluorescence; filed as Kd, often an IC50 or EC50 that approximates it; bounds were set here for any values at or beyond the usual limits of such assays
# applied_conditions: source organism: Mycobacterium tuberculosis str. Haarlem
measured_property: Kd

| sequence_content | endpoint_value |
| --- | --- |
| LPVEYLQVP | ≥ 20 µM |

---

Each entry below lists one item and its recorded pIC50 value.
# experimental_system: HLA-A*24:02
# protocol_description: IEDB peptide-MHC binding, purified MHC/competitive/fluorescence; bounds were set here for any values at or beyond the usual limits of such assays
# applied_conditions: source organism: Sudan ebolavirus
pIC50: −log10 of the molar value.

| sequence_content | pIC50 |
| --- | --- |
| AFSMPLGVV | 5.55 |
| VGVNTQETI | 5.12 |
| KFRKSSFFV | 6.35 |
| KINQIIHDF | 6.01 |

---

# experimental_system: HLA-A*02:03
# protocol_description: IEDB peptide-MHC binding, purified MHC/competitive/fluorescence; filed as Kd, often an IC50 or EC50 that approximates it; bounds were set here for any values at or beyond the usual limits of such assays
# applied_conditions: source organism: Mycobacterium tuberculosis variant bovis BCG str. Pasteur 1173P2

| sequence_content | Kd |
| --- | --- |
| DEGFHAATV | ≥ 20 µM |

---

# experimental_system: HLA-A*30:02
# protocol_description: IEDB peptide-MHC binding, purified MHC/competitive/radioactivity; filed as Kd, often an IC50 or EC50 that approximates it; bounds were set here for any values at or beyond the usual limits of such assays
# applied_conditions: source organism: Mammarenavirus caliense
pKd: −log10 of the molar value.
measured_property: pKd

| sequence_content | measured_property | endpoint_value |
| --- | --- | --- |
| SEFKSRFFIW | pKd | 5.13 |

---

# experimental_system: HLA-B*40:01
# protocol_description: IEDB peptide-MHC binding, purified MHC/direct/fluorescence; filed as Kd, often an IC50 or EC50 that approximates it; bounds were set here for any values at or beyond the usual limits of such assays
# applied_conditions: source organism: Campylobacter jejuni RM1221
pKd: −log10 of the molar value.

| sequence_content | pKd |
| --- | --- |
| KNDAVYIGY | ≤ 4.70 |

---

# experimental_system: HLA-B*07:02
# protocol_description: IEDB peptide-MHC binding, purified MHC/direct/fluorescence; filed as Kd, often an IC50 or EC50 that approximates it; bounds were set here for any values at or beyond the usual limits of such assays
# applied_conditions: source organism: Mycobacterium tuberculosis

| sequence_content | Kd |
| --- | --- |
| KLVGIELPK | ≥ 20 µM |
| SQAFNTPAL | ≥ 20 µM |

---

# experimental_system: HLA-A*33:01
# protocol_description: IEDB peptide-MHC binding, purified MHC/competitive/radioactivity; filed as Kd, often an IC50 or EC50 that approximates it; bounds were set here for any values at or beyond the usual limits of such assays
# applied_conditions: source organism: Dengue virus 3 Martinique/1243/1999
pKd: −log10 of the molar value.

| sequence_content | pKd |
| --- | --- |
| AIWYMWLGAR | 7.24 |

---

# experimental_system: HLA-A*02:06
# protocol_description: IEDB peptide-MHC binding, purified MHC/competitive/radioactivity; filed as Kd, often an IC50 or EC50 that approximates it; bounds were set here for any values at or beyond the usual limits of such assays
# applied_conditions: source organism: Vaccinia virus WR
pKd: −log10 of the molar value.
Classification field: enter T for pKd values not below 6, F for values below it.

| sequence_content | answer_label |
| --- | --- |
| RQVSVKLLI | T |
| LQWDDNIPEL | T |
| CIVAAVIIM | F |
| VLPFDIKYI | T |
| TVLGLGLSLK | F |
| EIVSHLRAST | F |
| NLERETGLSA | F |
| ALKAYFTAKI | F |
| NASKTINAL | F |
| ELWARISSSL | F |
| DVSLSAYII | F |
| LQDIVNEHDI | F |
| GLILFVLAL | F |
| ELSRLRYNL | F |
| FIPIIYSKA | T |
| SLVSKHWEL | T |
| DVEKEKFVAT | F |
| DAMIHKTYI | F |
| IMAFILGII | T |
| QIFEVYWYL | T |
| NVISKIYTL | T |
| EMKYALINLV | F |
| RLLIWAYLSK | F |
| MTSTRTIILV | T |
| RINLLVQYGA | F |
| KLFKRERDAI | F |
| NVTGFMEEEI | F |
| IVPEFAKQYV | T |
| NISFKSINKV | F |
| ILSLETVKM | T |
| KLYGYASLT | F |
| DAKRNSKSL | F |
| AAITLVVISV | T |
| IAMLKSKNI | F |
| ELTSNCTRTT | F |
| STTENAAYQV | T |

Attribution: the Immune Epitope Database (IEDB)
